# TESTED SYSTEM: DNA polymerase I (Escherichia coli, UniProt P00582)
# Construct: purchased BRL (Nick Translation System)
# Sequence (P00582 whole entry): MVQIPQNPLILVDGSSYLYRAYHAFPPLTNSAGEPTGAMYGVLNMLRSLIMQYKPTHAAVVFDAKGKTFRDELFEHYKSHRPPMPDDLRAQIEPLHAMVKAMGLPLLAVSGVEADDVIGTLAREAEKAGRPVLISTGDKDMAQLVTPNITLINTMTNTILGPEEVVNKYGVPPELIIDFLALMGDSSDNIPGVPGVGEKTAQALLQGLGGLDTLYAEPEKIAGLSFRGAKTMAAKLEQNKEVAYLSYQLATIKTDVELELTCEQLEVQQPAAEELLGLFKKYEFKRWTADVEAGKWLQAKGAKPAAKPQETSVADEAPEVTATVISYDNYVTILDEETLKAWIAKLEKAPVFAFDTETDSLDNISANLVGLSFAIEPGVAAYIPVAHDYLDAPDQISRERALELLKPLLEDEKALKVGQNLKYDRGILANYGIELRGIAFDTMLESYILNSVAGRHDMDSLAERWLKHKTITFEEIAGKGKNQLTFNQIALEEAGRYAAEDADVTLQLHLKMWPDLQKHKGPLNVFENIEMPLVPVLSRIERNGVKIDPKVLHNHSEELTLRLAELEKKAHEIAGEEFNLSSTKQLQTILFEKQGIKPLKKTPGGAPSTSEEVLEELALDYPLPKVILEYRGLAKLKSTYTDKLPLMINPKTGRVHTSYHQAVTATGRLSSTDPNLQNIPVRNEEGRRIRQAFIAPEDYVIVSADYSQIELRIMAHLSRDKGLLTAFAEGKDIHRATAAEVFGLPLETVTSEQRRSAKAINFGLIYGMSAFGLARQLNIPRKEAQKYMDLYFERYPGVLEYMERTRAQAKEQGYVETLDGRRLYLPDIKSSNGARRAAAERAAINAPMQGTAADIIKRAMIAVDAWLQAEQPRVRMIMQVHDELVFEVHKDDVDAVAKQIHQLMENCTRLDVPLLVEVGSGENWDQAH
# METHOD: Incorporation of dATP/dCTP and analogs into plasmid DNA by nick translation (3H-dGTP tracer)
# Assay type: biochemical, E. coli
# CONDITION DESCRIPTION: 1.5 h, 90 min, 15° C.; tracer 3H-dGTP incorporation relative to reaction mixture containing dNTP's and no derivatives; duplicate figures = two determinations; read-out: % Incorporation (90 min.)
PROPERTY NAME: activity at 20 µM (%)
Report as a plain number; the unit % is understood.

Please report the recorded activity at 20 µM for "O=C(CCCC[C@@H]1SC[C@@H]2NC(=O)N[C@@H]21)NCCNc1ccn([C@H]2C[C@H](O)[C@@H](COP(=O)(O)OP(=O)(O)OP(=O)(O)O)O2)c(=O)n1" .
12

Please report the recorded activity at 20 µM for "O=C(CCCC[C@@H]1SC[C@@H]2NC(=O)N[C@@H]21)NCCCCCCNc1ncnc2c1ncn2[C@H]1C[C@H](O)[C@@H](COP(=O)(O)OP(=O)(O)OP(=O)(O)O)O1" .
53

Please report the recorded activity at 20 µM for "O=C(CCCC[C@@H]1SC[C@@H]2NC(=O)N[C@@H]21)NCCNc1ncnc2c1ncn2[C@H]1C[C@H](O)[C@@H](COP(=O)(O)OP(=O)(O)OP(=O)(O)O)O1" .
29

Please report the recorded activity at 20 µM for "O=C(CCCCCNC(=O)CCCC[C@@H]1SC[C@@H]2NC(=O)N[C@@H]21)NCCCCCCNc1ccn([C@H]2C[C@H](O)[C@@H](COP(=O)(O)OP(=O)(O)OP(=O)(O)O)O2)c(=O)n1" .
42

Please report the recorded activity at 20 µM for "O=C(CCCC[C@@H]1SC[C@@H]2NC(=O)N[C@@H]21)NCCCCCC(=O)NCCNc1ccn([C@H]2C[C@H](O)[C@@H](COP(=O)(O)OP(=O)(O)OP(=O)(O)O)O2)c(=O)n1" .
22

Entry source: patent US4828979A
